Answer each item with its documented inhibition at 10 µM.
target: Rat TRPA1 expressing CHO cells (Rattus norvegicus, UniProt Q6RI86); construct: expressed in transfected cells; host or cells: CHO cells (Zeocin selection); assay: 45Calcium uptake assay, inhibition of AITC induced calcium uptake (rat); type: cell-based; conditions: rat TRPA1 CHO cells, AITC 10 μM, compound 10.0 μM; read-out: Percentage inhibition at 10.0 μM
Sequence (Q6RI86 whole entry): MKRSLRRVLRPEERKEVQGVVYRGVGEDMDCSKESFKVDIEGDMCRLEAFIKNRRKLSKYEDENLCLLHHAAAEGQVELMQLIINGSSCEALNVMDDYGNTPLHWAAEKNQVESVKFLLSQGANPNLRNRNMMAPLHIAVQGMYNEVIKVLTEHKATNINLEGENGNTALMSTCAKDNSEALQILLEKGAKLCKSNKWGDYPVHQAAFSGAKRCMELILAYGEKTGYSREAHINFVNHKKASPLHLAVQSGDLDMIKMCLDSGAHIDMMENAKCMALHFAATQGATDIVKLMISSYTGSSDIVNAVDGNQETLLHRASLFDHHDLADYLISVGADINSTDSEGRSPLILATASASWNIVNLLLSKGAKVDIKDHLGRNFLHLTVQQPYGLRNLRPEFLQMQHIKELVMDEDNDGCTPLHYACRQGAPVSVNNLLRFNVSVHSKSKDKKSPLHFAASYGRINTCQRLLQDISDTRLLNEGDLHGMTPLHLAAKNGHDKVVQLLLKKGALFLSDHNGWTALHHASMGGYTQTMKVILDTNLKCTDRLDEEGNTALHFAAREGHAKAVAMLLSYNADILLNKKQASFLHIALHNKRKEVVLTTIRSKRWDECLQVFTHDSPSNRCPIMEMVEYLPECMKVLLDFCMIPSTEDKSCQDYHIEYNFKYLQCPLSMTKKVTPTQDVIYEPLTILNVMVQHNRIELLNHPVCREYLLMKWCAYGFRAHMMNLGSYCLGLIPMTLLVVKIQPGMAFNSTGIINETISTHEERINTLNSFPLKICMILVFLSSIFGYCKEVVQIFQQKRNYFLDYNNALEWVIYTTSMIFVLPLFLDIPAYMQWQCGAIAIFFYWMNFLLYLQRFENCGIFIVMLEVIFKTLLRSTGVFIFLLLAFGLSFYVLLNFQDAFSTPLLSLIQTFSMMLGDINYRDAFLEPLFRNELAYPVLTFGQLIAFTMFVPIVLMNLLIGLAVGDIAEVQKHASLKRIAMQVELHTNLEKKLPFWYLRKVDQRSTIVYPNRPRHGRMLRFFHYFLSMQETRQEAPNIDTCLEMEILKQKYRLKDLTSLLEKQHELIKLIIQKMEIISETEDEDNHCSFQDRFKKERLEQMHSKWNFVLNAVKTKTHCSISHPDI
Numbers only, in %.

Previously resolved entries follow.
compound: Cn1c(=O)c2c(CC(=O)Nc3nc(-c4cccc(OC(F)(F)F)c4)cs3)csc2n(C)c1=O [Example 3]
endpoint label: inhibition at 10 µM
units of measure: %
experimental result: 99.7
--
compound: Cc1sc2c(c1CC(=O)Nc1nc(-c3ccc(C(F)(F)F)c(F)c3)cs1)c(=O)n(C)c(=O)n2C [Example 24]
endpoint label: inhibition at 10 µM
units of measure: %
experimental result: 100
--
compound: Cc1sc2c(c1CC(=O)Nc1nc(-c3ccc(Cl)c(Cl)c3)cs1)c(=O)n(C)c(=O)n2C [Example 20]
endpoint label: inhibition at 10 µM
units of measure: %
experimental result: 91.2
--
compound: Cn1c(=O)c2c(CC(=O)Nc3nc(-c4cccc(C(F)(F)F)c4F)cs3)csc2n(C)c1=O [Example 9]
endpoint label: inhibition at 10 µM
units of measure: %
experimental result: 100

Quick one: give me inhibition at 10 µM for each item below, same order please.
1. Cn1c(=O)c2c(CC(=O)Nc3nc(-c4cc(F)c(OCC(F)(F)F)c(F)c4)cs3)scc2n(C)c1=O [Example 60]
2. Cn1c(=O)c2c(CC(=O)Nc3nc(-c4cc(F)c(C(F)(F)F)c(F)c4)cs3)scc2n(C)c1=O [Example 58]
3. Cc1sc2c(c1CC(=O)Nc1nc(-c3ccc(Cl)cc3)cs1)c(=O)n(C)c(=O)n2C [Example 19]

[A]
[95.9, 71.7, 99.2]

---

Answer each item with its documented IC50.
Target: Human TRPA1 expressing CHO cells (Homo sapiens, UniProt O75762)
Construct: expressed in transfected cells; host or cells: CHO cells (G-418 selection)
Sequence (O75762 whole entry): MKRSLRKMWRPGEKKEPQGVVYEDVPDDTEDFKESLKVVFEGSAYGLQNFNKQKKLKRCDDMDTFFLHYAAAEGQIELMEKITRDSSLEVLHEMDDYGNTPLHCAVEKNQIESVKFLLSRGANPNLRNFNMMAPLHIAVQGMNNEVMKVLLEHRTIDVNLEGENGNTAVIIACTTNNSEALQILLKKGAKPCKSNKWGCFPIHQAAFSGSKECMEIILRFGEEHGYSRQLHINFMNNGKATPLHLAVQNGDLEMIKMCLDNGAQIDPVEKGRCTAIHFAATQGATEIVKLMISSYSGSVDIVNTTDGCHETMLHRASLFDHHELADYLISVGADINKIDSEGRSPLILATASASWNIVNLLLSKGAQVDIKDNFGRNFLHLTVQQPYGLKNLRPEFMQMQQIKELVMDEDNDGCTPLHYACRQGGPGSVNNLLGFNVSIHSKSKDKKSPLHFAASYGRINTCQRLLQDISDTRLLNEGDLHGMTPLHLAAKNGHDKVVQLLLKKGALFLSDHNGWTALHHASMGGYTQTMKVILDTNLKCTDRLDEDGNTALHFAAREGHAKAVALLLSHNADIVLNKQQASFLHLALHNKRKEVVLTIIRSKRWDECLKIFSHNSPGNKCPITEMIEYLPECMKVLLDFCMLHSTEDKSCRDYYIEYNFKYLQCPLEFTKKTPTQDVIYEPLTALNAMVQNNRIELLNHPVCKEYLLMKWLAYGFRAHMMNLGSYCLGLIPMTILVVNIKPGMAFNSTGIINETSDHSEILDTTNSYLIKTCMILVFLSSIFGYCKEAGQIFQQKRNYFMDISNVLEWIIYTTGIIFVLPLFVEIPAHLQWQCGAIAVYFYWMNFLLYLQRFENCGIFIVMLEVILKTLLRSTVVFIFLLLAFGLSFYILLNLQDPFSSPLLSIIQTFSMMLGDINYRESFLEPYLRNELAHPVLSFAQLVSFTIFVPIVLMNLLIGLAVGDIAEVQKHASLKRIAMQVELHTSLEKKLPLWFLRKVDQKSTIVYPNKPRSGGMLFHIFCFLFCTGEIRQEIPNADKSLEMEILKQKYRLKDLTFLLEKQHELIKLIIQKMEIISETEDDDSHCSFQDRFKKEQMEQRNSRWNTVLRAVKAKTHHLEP
Experiment: 45Calcium uptake assay, inhibition of AITC induced calcium uptake (human)
Assay type: cell-based
Settings: human TRPA1 CHO cells, AITC 30 μM; read-out: Human IC50 value (Range)
Method: Screening for TRPA1 Antagonist Using the ^45Calcium Uptake Assay: The inhibition of TRPA1 receptor activation was measured as inhibition of allyl isothiocyanate (AITC) induced cellular uptake of radioactive calcium. Test compounds were dissolved in 100% DMSO to prepare 10 mM stock and then diluted using plain medium with 0.1% BSA and 1.8 mM CaCl2 to get the desired concentration. […] Radioactivity in the lysate was measured in a Packard TopCount after addition of liquid scintillant. […]

Previously resolved entries follow.
chemical structure: Cn1c(=O)c2c(CC(=O)Nc3nc(-c4ccc(F)c(C(F)(F)F)c4F)cs3)csc2n(C)c1=O
target under test: Human TRPA1 expressing CHO cells (Homo sapiens, UniProt O75762)
experimental result: < 50 nM
//
chemical structure: CCCc1sc2c(c1CC(=O)Nc1nc(-c3cc(F)c(OC(F)F)c(F)c3)cs1)c(=O)n(C)c(=O)n2C
target under test: Human TRPA1 expressing CHO cells (Homo sapiens, UniProt O75762)
experimental result: < 50 nM

Quick one: give me IC50 for each item below, same order please.
1. Cn1c(=O)c2c(CC(=O)Nc3nc(-c4ccc(F)c(C(F)(F)F)c4F)cs3)scc2n(C)c1=O
2. Cc1sc2c(c1CC(=O)Nc1nc(-c3ccc(OC(F)(F)F)c(F)c3)cs1)c(=O)n(C)c(=O)n2C
3. Cn1c(=O)c2c(CC(=O)Nc3nc(-c4ccc(C(F)(F)F)c(F)c4)cs3)csc2n(C)c1=O
4. CCc1sc2c(c1CC(=O)Nc1nc(-c3ccc(C(F)(F)F)c(F)c3)cs1)c(=O)n(C)c(=O)n2C
5. Cn1c(=O)c2c(CC(=O)Nc3nc(-c4ccc(Cl)cc4)cs3)scc2n(C)c1=O
6. Cn1c(=O)c2c(CC(=O)Nc3nc(-c4cc(F)cc(C(F)(F)F)c4)cs3)scc2n(C)c1=O

[A]
["< 50 nM", "< 50 nM", "< 50 nM", "< 50 nM", "50 to 500 nM", "< 50 nM"]

Quick one: give me IC50 for each item below, same order please.
1. Cc1sc2c(c1CC(=O)Nc1nc(-c3cccc(OC(F)(F)F)c3)cs1)c(=O)n(C)c(=O)n2C
2. CCCc1sc2c(c1CC(=O)Nc1nc(-c3ccc(C(F)(F)F)c(F)c3)cs1)c(=O)n(C)c(=O)n2C
3. Cn1c(=O)c2c(CC(=O)Nc3nc(-c4ccc(C(F)(F)F)cc4)cs3)scc2n(C)c1=O
4. Cc1sc2c(c1CC(=O)Nc1nc(-c3cccc(F)c3F)cs1)c(=O)n(C)c(=O)n2C
5. Cc1sc2c(c1CC(=O)Nc1nc(-c3ccc(F)c(C(F)(F)F)c3F)cs1)c(=O)n(C)c(=O)n2C
6. CCc1sc2c(c1CC(=O)Nc1nc(-c3cc(F)c(OC(F)F)c(F)c3)cs1)c(=O)n(C)c(=O)n2C
7. Cn1c(=O)c2c(CC(=O)Nc3nc(-c4cc(F)c(C(F)(F)F)c(F)c4)cs3)scc2n(C)c1=O

[A]
1: 50 to 500 nM; 2: < 50 nM; 3: < 50 nM; 4: 50 to 500 nM; 5: < 50 nM; 6: < 50 nM; 7: < 50 nM

Quick one: give me IC50 for each item below, same order please.
1. Cn1c(=O)c2c(CC(=O)Nc3nc(-c4cc(F)c(OCC(F)(F)F)c(F)c4)cs3)scc2n(C)c1=O
2. Cn1c(=O)c2c(CC(=O)Nc3nc(-c4ccc(F)c(C(F)(F)F)c4)cs3)csc2n(C)c1=O
3. Cn1c(=O)c2c(CC(=O)Nc3nc(-c4cccc(OC(F)(F)F)c4)cs3)scc2n(C)c1=O
4. Cn1c(=O)c2c(CC(=O)Nc3nc(-c4ccc(C(F)(F)F)c(F)c4F)cs3)scc2n(C)c1=O
5. CCc1sc2c(c1CC(=O)Nc1nc(-c3cc(F)c(OCC(F)(F)F)c(F)c3)cs1)c(=O)n(C)c(=O)n2C

[A]
1: < 50 nM; 2: < 50 nM; 3: 50 to 500 nM; 4: < 50 nM; 5: < 50 nM

Quick one: give me IC50 for each item below, same order please.
1. Cn1c(=O)c2c(CC(=O)Nc3nc(-c4ccc(F)c(OC(F)(F)F)c4)cs3)csc2n(C)c1=O
2. Cc1sc2c(c1CC(=O)Nc1nc(-c3ccc(F)c(C(F)(F)F)c3)cs1)c(=O)n(C)c(=O)n2C
3. Cn1c(=O)c2c(CC(=O)Nc3nc(-c4ccc(Cl)cc4)cs3)csc2n(C)c1=O
4. Cn1c(=O)c2c(CC(=O)Nc3nc(-c4cccc(OC(F)(F)F)c4)cs3)csc2n(C)c1=O
5. Cc1sc2c(c1CC(=O)Nc1nc(-c3ccc(C(C)(C)C)cc3)cs1)c(=O)n(C)c(=O)n2C
6. Cn1c(=O)c2c(CC(=O)Nc3nc(-c4cccc(C(F)(F)F)c4F)cs3)csc2n(C)c1=O
7. CCc1sc2c(c1CC(=O)Nc1nc(-c3ccc(F)c(C(F)(F)F)c3F)cs1)c(=O)n(C)c(=O)n2C
8. Cn1c(=O)c2c(CC(=O)Nc3nc(-c4ccc(C(F)(F)F)cc4F)cs3)scc2n(C)c1=O

[A]
1: < 50 nM; 2: < 50 nM; 3: 50 to 500 nM; 4: 50 to 500 nM; 5: 50 to 500 nM; 6: < 50 nM; 7: < 50 nM; 8: < 50 nM

Quick one: give me IC50 for each item below, same order please.
1. Cc1sc2c(c1CC(=O)Nc1nc(-c3ccc(Cl)c(Cl)c3)cs1)c(=O)n(C)c(=O)n2C
2. Cn1c(=O)c2c(CC(=O)Nc3nc(-c4cc(F)c(C(F)(F)F)c(F)c4)cs3)csc2n(C)c1=O

[A]
1: < 50 nM; 2: < 50 nM

---

biological target: Human TRPA1 expressing CHO cells (Homo sapiens); construct: expressed in transfected cells; host or cells: CHO cells (G-418 selection); assay: 45Calcium uptake assay, inhibition of AITC induced calcium uptake (human); format: cell-based; settings: human TRPA1 CHO cells, AITC 30 μM, compound 1.0 μM; read-out: Percentage inhibition at 1.0 μM
endpoint label: inhibition at 1 µM (%)
Numbers only, in %.

Previously resolved entries follow.
chemical structure: CCc1sc2c(c1CC(=O)Nc1nc(-c3ccc(C#N)cc3)cs1)c(=O)n(C)c(=O)n2C
units of measure: %
experimental result: 88.9
//
chemical structure: Cn1c(=O)c2c(CC(=O)Nc3nc(-c4ccc(Cl)cc4)cs3)csc2n(C)c1=O
units of measure: %
experimental result: 99
//
chemical structure: Cn1c(=O)c2c(CC(=O)Nc3nc(-c4cccc(OC(F)(F)F)c4)cs3)scc2n(C)c1=O
units of measure: %
experimental result: 95.5

Quick one: give me inhibition at 1 µM for each item below, same order please.
1. Cn1c(=O)c2c(CC(=O)Nc3nc(-c4cc(F)c(OCC(F)(F)F)c(F)c4)cs3)scc2n(C)c1=O
2. Cn1c(=O)c2c(CC(=O)Nc3nc(-c4ccc(OC(F)(F)F)c(F)c4)cs3)scc2n(C)c1=O
3. CC(C)Cc1ccc(-c2csc(NC(=O)Cc3scc4c3c(=O)n(C)c(=O)n4C)n2)cc1
4. CCc1sc2c(c1CC(=O)Nc1nc(-c3ccc(F)c(C(F)(F)F)c3F)cs1)c(=O)n(C)c(=O)n2C

[A]
98
98
91.4
99.2

[Q] Give its inhibition at 1 µM value. Item: Cn1c(=O)c2c(CC(=O)Nc3cc(-c4ccc(Cl)cc4)no3)csc2n(C)c1=O
[A] 25
